// provenance: patent US12187712B2

molecular target: bovine cardiac myofibrils (Bos taurus); construct: full-length cardiac myosin in the context of the native sarcomere, skinned myofibril assays were performed; from tissue; host or cells: bovine cardiac left ventricular tissue, detergent-skinned (Triton X-100) myofibrils; test: Skinned myofibril ATPase assay (PK/LDH-coupled), CDMF75; format: biochemical; settings: inhibition of steady-state ATPase activity of bovine cardiac myofibrils at 75% Ca2+ activation (pCa75)
Give pIC50 for every item shown.
Numbers only, as −log10 of the molar value.

Illustrative cases are given below, each with its answer.
Item Cc1nc(-c2ccc(CNc3cnc(Cl)cn3)cc2)no1 has what recorded pIC50?
5.82

Please give the result for Fc1cc(CNc2cnccn2)ccc1-c1noc(C(F)(F)F)n1 too.
5.32

Please give the result for COc1cnc(NCc2ccc(-c3cc(C)on3)cc2)cn1 too.
5.66

Consider the record given below.
Item Cc1cc(NCc2ccc(-c3noc(C)n3)cc2)ncn1 has what recorded pIC50?
5.18

* * *

target: bovine cardiac myofibrils (Bos taurus); construct: full-length cardiac myosin in the context of the native sarcomere, skinned myofibril assays were performed; assay: Skinned myofibril ATPase assay (PK/LDH-coupled), CDMF75; settings: inhibition of steady-state ATPase activity of bovine cardiac myofibrils at 75% Ca2+ activation (pCa75)
pIC50: −log10 of the molar value.
Criterion: pIC50 meeting or surpassing 5. Met: fulfilled. Not met: not fulfilled.

Check this molecule for pIC50 at or above 5: Cc1cc(-c2ccc(CNc3cc(=O)[nH]cn3)cc2)no1
not fulfilled

Please give the result for FCc1nc(-c2ccc(CNc3cnccn3)cc2)no1 too.
fulfilled

Please give the result for C[C@@H](Nc1cnccn1)c1ccc(-c2noc(C(F)(F)F)n2)cc1 too.
fulfilled

Please give the result for C[C@@H](Nc1cnccn1)c1ccc(-c2noc(C(F)F)n2)cc1 too.
fulfilled

Please give the result for Cc1nc(-c2ccc3c(c2)CCC3Nc2cnccn2)no1 (centres unmarked) too.
fulfilled

More entries:
Check this molecule for pIC50 at or above 5: FC(F)c1nc(-c2ccc(CNc3cnccn3)cc2)no1
fulfilled

Please give the result for Cc1nc(-c2ccc(CNc3ccc(C#N)cn3)cc2)no1 too.
not fulfilled

Please give the result for C[C@@H](Nc1cnccn1)c1ccc(-c2noc(C(C)(C)C)n2)cc1 too.
not fulfilled

* * *

biological target: bovine cardiac myofibrils (Bos taurus, UniProt Q9BE39); construct: full-length cardiac myosin in the context of the native sarcomere, skinned myofibril assays were performed; from tissue; host or cells: bovine cardiac left ventricular tissue, detergent-skinned (Triton X-100) myofibrils; assay: Skinned myofibril ATPase assay (PK/LDH-coupled), CDMF75; format: biochemical; details: inhibition of steady-state ATPase activity of bovine cardiac myofibrils at 75% Ca2+ activation (pCa75)
Sequence (Q9BE39 whole entry): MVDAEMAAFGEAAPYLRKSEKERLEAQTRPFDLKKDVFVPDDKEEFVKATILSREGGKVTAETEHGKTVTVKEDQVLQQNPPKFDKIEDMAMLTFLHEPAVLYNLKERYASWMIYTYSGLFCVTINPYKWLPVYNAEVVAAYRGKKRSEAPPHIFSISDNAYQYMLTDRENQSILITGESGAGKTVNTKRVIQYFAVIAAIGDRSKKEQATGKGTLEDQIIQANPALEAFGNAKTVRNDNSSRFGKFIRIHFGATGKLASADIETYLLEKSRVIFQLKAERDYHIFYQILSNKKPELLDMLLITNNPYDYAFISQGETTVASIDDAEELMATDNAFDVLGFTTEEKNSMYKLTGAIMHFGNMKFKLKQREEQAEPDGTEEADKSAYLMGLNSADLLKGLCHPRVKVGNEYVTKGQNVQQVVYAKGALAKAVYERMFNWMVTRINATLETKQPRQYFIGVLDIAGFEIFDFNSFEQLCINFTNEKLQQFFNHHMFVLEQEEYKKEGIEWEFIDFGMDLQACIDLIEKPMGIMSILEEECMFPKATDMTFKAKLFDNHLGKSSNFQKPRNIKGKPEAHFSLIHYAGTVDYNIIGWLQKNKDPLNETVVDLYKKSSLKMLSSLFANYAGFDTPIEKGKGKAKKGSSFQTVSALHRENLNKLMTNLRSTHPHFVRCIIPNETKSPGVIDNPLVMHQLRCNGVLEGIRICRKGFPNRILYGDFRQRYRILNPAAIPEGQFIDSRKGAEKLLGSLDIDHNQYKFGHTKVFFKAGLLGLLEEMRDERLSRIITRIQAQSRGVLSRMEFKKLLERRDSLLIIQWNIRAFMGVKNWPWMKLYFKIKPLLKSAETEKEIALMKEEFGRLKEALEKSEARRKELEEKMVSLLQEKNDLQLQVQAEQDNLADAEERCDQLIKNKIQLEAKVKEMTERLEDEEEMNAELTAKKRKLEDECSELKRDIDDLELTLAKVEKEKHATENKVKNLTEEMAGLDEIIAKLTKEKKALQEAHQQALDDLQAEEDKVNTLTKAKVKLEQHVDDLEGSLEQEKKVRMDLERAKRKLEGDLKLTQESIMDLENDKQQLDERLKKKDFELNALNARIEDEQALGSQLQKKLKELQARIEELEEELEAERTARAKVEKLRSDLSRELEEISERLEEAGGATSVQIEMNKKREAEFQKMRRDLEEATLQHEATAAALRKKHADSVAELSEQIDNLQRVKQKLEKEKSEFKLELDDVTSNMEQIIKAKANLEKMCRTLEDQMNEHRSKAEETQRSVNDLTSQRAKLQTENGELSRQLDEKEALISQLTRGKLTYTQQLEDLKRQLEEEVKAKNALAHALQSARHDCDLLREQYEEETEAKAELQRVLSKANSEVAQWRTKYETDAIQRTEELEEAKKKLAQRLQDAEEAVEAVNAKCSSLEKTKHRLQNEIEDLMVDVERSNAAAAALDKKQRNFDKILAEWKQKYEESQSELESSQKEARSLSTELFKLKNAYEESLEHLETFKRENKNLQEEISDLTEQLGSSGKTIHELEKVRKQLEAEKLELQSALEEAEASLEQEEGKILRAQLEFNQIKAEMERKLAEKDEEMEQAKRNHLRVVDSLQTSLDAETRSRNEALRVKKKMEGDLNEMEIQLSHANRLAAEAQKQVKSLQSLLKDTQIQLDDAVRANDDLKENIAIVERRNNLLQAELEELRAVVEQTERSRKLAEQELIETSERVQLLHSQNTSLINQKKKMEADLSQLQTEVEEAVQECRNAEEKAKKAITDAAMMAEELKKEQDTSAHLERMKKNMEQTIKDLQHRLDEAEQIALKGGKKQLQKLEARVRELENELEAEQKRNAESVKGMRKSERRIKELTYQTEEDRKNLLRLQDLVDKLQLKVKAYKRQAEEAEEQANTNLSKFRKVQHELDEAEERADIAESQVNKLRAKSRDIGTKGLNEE
Sequence (P85100 whole entry partner): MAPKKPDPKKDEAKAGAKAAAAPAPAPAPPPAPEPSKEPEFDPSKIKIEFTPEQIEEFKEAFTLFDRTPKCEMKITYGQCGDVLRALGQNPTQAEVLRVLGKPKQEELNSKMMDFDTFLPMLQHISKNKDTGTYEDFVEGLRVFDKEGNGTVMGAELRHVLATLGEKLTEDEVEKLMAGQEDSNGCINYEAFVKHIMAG
Sequence (Q3SZE5 whole entry partner): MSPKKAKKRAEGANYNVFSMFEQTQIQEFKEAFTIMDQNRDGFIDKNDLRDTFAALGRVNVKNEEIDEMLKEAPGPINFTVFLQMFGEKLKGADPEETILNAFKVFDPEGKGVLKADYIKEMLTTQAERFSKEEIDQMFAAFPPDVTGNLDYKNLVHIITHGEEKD
Criterion: CDMF75 IC15 meeting or surpassing 600 nM. Met: true (1). Not met: false (0).

Solved entries (count: 10):
Check this molecule for CDMF75 IC15 at or above 600 nM: Cc1cc(-c2ccc(CNc3cc(=O)cc[nH]3)cc2)no1
true (1)

Please give the result for CCc1nc(-c2ccc(CNc3cc(C#N)ncn3)cc2)no1 too.
false (0)

Please give the result for C[C@@H](Nc1cnccn1)c1ccc(-c2noc(-c3ccco3)n2)cc1 too.
false (0)

Please give the result for Cc1cc(-c2ccc(CNc3cnccn3)cc2)no1 too.
false (0)

Please give the result for C[C@@H](Nc1cnccn1)c1ccc(-c2noc(C(F)(F)F)n2)cc1 too.
false (0)

Please give the result for Cc1nc(-c2ccc(CNC(=O)c3ccccc3)cc2)no1 too.
true (1)

Please give the result for COc1cccc(NCc2ccc(-c3cc(C)on3)cc2)n1 too.
true (1)

Please give the result for Cc1onc(-c2ccc(CNc3cnccn3)cc2)c1I too.
false (0)

Please give the result for Cc1nc(-c2ccc(CNc3ccc(Cl)cn3)cc2)no1 too.
true (1)

Please give the result for Fc1cc(-c2noc(C3CC3)n2)ccc1CNc1cnccn1 too.
false (0)

More entries:
Check this molecule for CDMF75 IC15 at or above 600 nM: Cc1nc(-c2ccc(CNc3cc(C#N)ncn3)nc2)no1
true (1)

Please give the result for Cc1nc(-c2ccc(C(C)Nc3cc(Cl)ncn3)cc2)no1 (stereo not shown) too.
true (1)

* * *

target: bovine cardiac myofibrils (Bos taurus); construct: full-length cardiac myosin in the context of the native sarcomere, skinned myofibril assays were performed; assay: Skinned myofibril ATPase assay (PK/LDH-coupled), CDMF75; conditions: inhibition of steady-state ATPase activity of bovine cardiac myofibrils at 75% Ca2+ activation (pCa75)
Output yes (1) for records whose IC50 is lower than 9 µM, no (0) for records at or above 9 µM.

Solved entries (count: 5):
Please determine if Cc1cc(-c2ccc(CNc3cc(=O)cc[nH]3)cc2)no1 [Compound 68] is below 9 µM in terms of IC50.
no (0)

Please give the result for Cc1cc(-c2nc(-c3ccc([C@@H](C)Nc4cnccn4)cc3)no2)on1 [Compound 38] too.
no (0)

Please give the result for Cc1cc(-c2ccc(CNc3cnccn3)cc2)on1 [Compound 53] too.
no (0)

Please give the result for C[C@@H](Nc1cnccn1)c1ccc(-c2noc(-c3cccs3)n2)cc1 [Compound 40] too.
yes (1)

Please give the result for Cc1nc(-c2ccc(C(C)Nc3cnccn3)cc2)no1 (stereo not shown) [Compound 26] too.
yes (1)

More entries:
Please determine if Cc1cc(-c2ccc(CNc3cc[nH]n3)cc2)no1 [Compound 62] is below 9 µM in terms of IC50.
no (0)

Please give the result for Cc1nc(-c2ccc(CNc3cc(C4CC4)ncn3)cc2)no1 [Compound 6] too.
no (0)

* * *

target: bovine cardiac myofibrils (Bos taurus, UniProt Q9BE39); construct: full-length cardiac myosin in the context of the native sarcomere, skinned myofibril assays were performed; from tissue; host or cells: bovine cardiac left ventricular tissue, detergent-skinned (Triton X-100) myofibrils; experiment: Skinned myofibril ATPase assay (PK/LDH-coupled), CDMF75; assay type: biochemical; conditions: inhibition of steady-state ATPase activity of bovine cardiac myofibrils at 75% Ca2+ activation (pCa75)
Result type: CDMF75 IC15
I'd appreciate it if you included the unit after the number.

Illustrative cases are given below, each with its answer.
Item Cc1nc(-c2ccc(CNc3ccnc(Cl)n3)cc2)no1 has what recorded CDMF75 IC15?
2.5 µM

Please give the result for Cc1nc(-c2ccc(CNc3ccnc(Cl)c3)cc2)no1 too.
2.2 µM

Consider the record given below.
Item Cc1cnn(-c2ccc(CNc3cnccn3)cc2)c1 has what recorded CDMF75 IC15?
8.1 µM

* * *

Biological target: bovine cardiac myofibrils (Bos taurus)
Construct: full-length cardiac myosin in the context of the native sarcomere, skinned myofibril assays were performed; from tissue; host or cells: bovine cardiac left ventricular tissue, detergent-skinned (Triton X-100) myofibrils
Test: Skinned myofibril ATPase assay (PK/LDH-coupled), CDMF75
Format: biochemical
Details: inhibition of steady-state ATPase activity of bovine cardiac myofibrils at 75% Ca2+ activation (pCa75)
Experimental: To evaluate the effect of compounds on the ATPase activity of full-length cardiac myosin in the context of the native sarcomere, skinned myofibril assays were performed. […] Small molecule agents were assessed for their ability to inhibit the steady-state ATPase activity of bovine cardiac myofibrils using pyruvate kinase and lactate dehydrogenase (PK/LDH)-coupled enzyme system. This assay regenerates myosin-produced ADP into ATP by oxidizing NADH, producing an absorbance change at 340 nm. […]
Criterion: CDMF75 IC15 meeting or surpassing 2000 nM. Met: MET. Not met: NOT MET.

Solved entries (count: 10):
Check this compound for CDMF75 IC15 at or above 2000 nM: Cc1nc(-c2ccc(CNC(=O)OCc3ccccc3)cc2)no1
MET

Please give the result for COc1cnc(NCc2ccc(-c3cc(C)on3)cc2)cn1 too.
NOT MET

Please give the result for c1cnc(NCc2ccc(-c3noc(C4CCC4)n3)cc2)cn1 too.
NOT MET

Please give the result for Cc1nc(-c2ccc(CNc3cnc(C(F)(F)F)cn3)cc2)no1 too.
MET

Please give the result for Cc1nc(-c2ccc(CNC(=O)Oc3ccccc3)cc2)no1 too.
MET

Please give the result for Cc1cc(NCc2ccc(-c3noc(C)n3)cc2)ncn1 too.
NOT MET

Please give the result for Cc1noc(-c2ccc(CNc3cc(Cl)ncn3)cc2)n1 too.
NOT MET

Please give the result for Cc1cc(-c2ccc(CNc3cccc(=O)[nH]3)cc2)no1 too.
MET

Please give the result for C[C@@H](Nc1cnccn1)c1ccc(-c2noc(C(F)F)n2)cc1 too.
NOT MET

Please give the result for Cc1nc(-c2ccc(C(C)Nc3cnccn3)cc2)no1 (stereo not drawn) too.
NOT MET

Shift focus to the following entry.
Check this compound for CDMF75 IC15 at or above 2000 nM: Cc1cc(-c2ccc(CNc3cc(=O)[nH]cn3)cc2)no1
MET

* * *

molecular target: bovine cardiac myofibrils (Bos taurus, UniProt Q9BE39); construct: full-length cardiac myosin in the context of the native sarcomere, skinned myofibril assays were performed; assay: Skinned myofibril ATPase assay (PK/LDH-coupled), CDMF75; settings: inhibition of steady-state ATPase activity of bovine cardiac myofibrils at 75% Ca2+ activation (pCa75)
Result type: pIC50
One number for each entry, as −log10 of the molar value.

Illustrative cases are given below, each with its answer.
Item Cc1nc(-c2ccc(CNc3ccnc(Cl)n3)cc2)no1 has what recorded pIC50?
5.01

Please give the result for Cc1nc(-c2ccc(CNc3cnc(C#N)cn3)cc2)no1 too.
5.12

Please give the result for Cc1nc(-c2ccc(CNc3ccnc(Cl)c3)cc2)no1 too.
4.96

List the reported pIC50 of each compound below.
1. Cc1nc(-c2ccc(CNc3cc(C#N)ncn3)nc2)no1
2. Cc1nc(-c2ccc(CNC(=O)Nc3ccccc3)cc2)no1
3. C[C@@H](Nc1cnccn1)c1ccc(-c2noc(C3CCC3)n2)cc1
4. Cc1nc(-c2ccc([C@@H](C)Nc3cnccn3)cc2)no1
5. Cc1cc(-c2ccc(CNc3cccc(=O)[nH]3)cc2)no1
6. Cc1nc(-c2ccc(CNc3cnccn3)c(F)c2)no1
7. C[C@@H](Nc1cnccn1)c1ccc(-c2noc(-c3ccco3)n2)cc1
8. Cc1cnc(-c2ccc(CNc3cnccn3)cc2)o1

1: 4.72; 2: 5.33; 3: 5.85; 4: 5.59; 5: 4.99; 6: 5.66; 7: 6.05; 8: 4.54
